Experiment: Cell viability (MTT) assay, normal human lung fibroblasts
Type: cell-based
Settings: normal human lung fibroblasts (NHLF, CC-2512); normal human lung fibroblast cells; read-out: IC50 of cytotoxicity against normal cells
ASSAY_METRIC: IC50 (µM)
Record the value in µM, omitting the unit from your answer.

Incoming: What value of IC50 has been recorded for this entry: "NC(=NO)c1ccc2c(c1)N(Cc1ccc(C(=O)NO)c(-c3ccccc3)c1)c1ccccc1S2"
Outgoing: 8
